- experimental-target: UniProtKB Q8R455
- Sequence (Q8R455 whole entry): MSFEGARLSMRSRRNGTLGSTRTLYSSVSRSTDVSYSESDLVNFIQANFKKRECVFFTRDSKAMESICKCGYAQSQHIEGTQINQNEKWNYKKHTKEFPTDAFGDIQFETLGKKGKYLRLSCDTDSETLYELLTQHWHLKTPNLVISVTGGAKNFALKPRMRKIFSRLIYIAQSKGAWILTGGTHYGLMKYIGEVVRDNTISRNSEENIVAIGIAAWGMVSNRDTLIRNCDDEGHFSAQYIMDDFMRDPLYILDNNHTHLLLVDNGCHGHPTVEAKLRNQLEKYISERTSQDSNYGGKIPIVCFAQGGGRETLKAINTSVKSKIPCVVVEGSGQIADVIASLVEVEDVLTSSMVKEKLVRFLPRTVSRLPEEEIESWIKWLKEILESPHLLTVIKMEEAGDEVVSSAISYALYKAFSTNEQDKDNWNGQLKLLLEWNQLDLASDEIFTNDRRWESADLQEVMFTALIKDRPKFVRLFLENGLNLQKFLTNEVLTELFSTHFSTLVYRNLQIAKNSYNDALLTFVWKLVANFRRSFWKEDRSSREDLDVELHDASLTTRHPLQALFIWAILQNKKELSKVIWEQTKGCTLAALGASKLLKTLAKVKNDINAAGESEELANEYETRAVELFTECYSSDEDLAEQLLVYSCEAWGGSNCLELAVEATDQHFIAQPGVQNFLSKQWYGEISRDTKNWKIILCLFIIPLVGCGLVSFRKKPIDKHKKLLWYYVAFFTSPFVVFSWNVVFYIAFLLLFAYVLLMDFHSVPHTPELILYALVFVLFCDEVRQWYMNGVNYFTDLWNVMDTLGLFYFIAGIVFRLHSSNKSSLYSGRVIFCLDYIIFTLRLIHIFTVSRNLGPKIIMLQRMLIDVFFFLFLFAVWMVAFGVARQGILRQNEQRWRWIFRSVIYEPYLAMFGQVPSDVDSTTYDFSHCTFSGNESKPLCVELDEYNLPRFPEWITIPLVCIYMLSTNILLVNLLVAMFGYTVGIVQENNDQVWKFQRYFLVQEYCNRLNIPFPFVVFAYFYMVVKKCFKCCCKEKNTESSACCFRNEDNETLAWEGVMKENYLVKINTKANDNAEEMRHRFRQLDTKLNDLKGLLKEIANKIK
- test-description: Agonist activity at rat recombinant TRPM8 receptor expressed in HEK293 cells assessed as increase in intracellular calcium concentration by fluorimetric test
reported-endpoint: EC50 (nM)
Respond with the bare value in nM.

Prompt: Entry under review: O=C1NC(c2cccc([N+](=O)[O-])c2)=CCN1c1ccccc1O . Reported EC50?
Completion: 190

----------
- experimental-target: Transient receptor potential cation channel subfamily A member 1 (Rattus norvegicus, UniProt Q6RI86)
- Sequence (Q6RI86 whole entry): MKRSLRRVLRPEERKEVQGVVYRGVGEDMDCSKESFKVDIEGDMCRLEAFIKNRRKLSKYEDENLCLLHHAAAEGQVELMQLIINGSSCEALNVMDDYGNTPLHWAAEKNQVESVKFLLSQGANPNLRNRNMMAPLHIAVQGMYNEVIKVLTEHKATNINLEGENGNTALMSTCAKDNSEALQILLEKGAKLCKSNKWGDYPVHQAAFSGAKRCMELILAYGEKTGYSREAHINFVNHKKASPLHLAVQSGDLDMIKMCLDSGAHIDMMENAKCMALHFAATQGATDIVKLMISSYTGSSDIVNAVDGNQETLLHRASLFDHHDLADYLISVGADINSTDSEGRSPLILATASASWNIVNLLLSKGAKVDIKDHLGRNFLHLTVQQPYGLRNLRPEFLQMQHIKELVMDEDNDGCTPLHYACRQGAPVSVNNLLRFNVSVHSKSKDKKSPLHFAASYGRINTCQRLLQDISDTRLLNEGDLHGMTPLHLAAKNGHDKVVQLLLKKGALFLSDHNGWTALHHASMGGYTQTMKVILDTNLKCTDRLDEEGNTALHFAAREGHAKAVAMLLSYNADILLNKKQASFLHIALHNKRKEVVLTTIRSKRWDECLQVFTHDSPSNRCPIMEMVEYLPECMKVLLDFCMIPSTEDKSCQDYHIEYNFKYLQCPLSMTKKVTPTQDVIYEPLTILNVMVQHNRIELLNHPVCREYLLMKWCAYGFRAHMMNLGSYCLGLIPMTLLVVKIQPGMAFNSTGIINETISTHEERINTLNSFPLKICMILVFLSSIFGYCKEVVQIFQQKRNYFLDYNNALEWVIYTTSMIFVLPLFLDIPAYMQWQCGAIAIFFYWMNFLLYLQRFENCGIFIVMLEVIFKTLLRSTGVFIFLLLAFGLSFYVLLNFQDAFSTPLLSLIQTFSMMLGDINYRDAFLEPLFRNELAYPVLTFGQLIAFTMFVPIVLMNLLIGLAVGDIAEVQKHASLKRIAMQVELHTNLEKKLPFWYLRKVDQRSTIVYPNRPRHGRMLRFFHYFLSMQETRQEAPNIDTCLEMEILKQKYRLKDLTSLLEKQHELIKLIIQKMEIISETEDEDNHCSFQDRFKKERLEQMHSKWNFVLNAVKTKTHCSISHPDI
- test-description: Agonist activity at rat recombinant TRPA1 receptor expressed in HEK293 cells assessed as increase in intracellular calcium concentration by fluorimetric test
- Format: functional, cell-based
- condition-label: read-out: EC50
reported-endpoint: EC50 (µM)
Respond with the bare value in µM.

C=C(C)C1CC=C(C=O)CC1 (configuration not stated): 41

API: the following record is the query input.
Prompt: Entry under review: CC(C)CCC(=O)c1ccoc1 . Reported EC50?
Completion: 19.7
